system: K562 CRISPRi cells; experiment: Constant region variant library pooled growth screen, K562; format: cell-based, human; details: sgRNA constant region variants; activity relative to the original, un-modified constant region cr995
VALUE_TYPE: Mean relative activity
The answer should be written as a number, with no unit following it.

molecule="cr869 (nucleic acid, listed as DNA, chemistry not fully specified) guide: GTTTAAGAGCTAAGCTGGAAACAGCATAGCAAGTTTAAATAAGGCTAGTCCGTTATCAACTTGAAAAAGAGGCACCGAGTCGGTGCT" value_type="Mean relative activity" measured=0.8861
molecule="cr279 (nucleic acid, listed as DNA, chemistry not fully specified) guide: GTTTAAGAGCTAAGCTGGAAACAGCATAGCAAGTTTAAATAAGGCTAGTCCGTTATCAACTTGAAAAAGTGGCACCGAGCCGGTGCC" value_type="Mean relative activity" measured=0.6783
molecule="cr035 (nucleic acid, listed as DNA, chemistry not fully specified) guide: GTTGATGAGCTAAGCTGGAAACAGCATAGCAAGTTTAAATAAGGCTAGTCCGTTATCAACTTGAAAAAGTGGCACCGAGTCGGTGCT" value_type="Mean relative activity" measured=0.0006927
molecule="cr053 (nucleic acid, listed as DNA, chemistry not fully specified) guide: GATTCAGAGCTAAGCTGGAAACAGCATAGCAAGTTTAAATAAGGCTAGTCCGTTATCAACTTGAAAAAGTGGCACCGAGTCGGTGCT" value_type="Mean relative activity" measured=−0.003704
molecule="cr386 (nucleic acid, listed as DNA, chemistry not fully specified) guide: GTTTAAGAGCTAAGCTGGAAACAGCATAGCAAGGTTAAATAAGGCTAGTCCGTTATCAACCTGAAAAGGTGGCACCGAGTCGGTGCT" value_type="Mean relative activity" measured=0.02428

What value of Mean relative activity has been recorded for this entry: cr203 (nucleic acid, listed as DNA, chemistry not fully specified) guide: GTTTAAGAGCTAAGCTGGAAACAGCATAGCAACTTTAAATAAGGCTAGTCCTTTATCAACTTGAAAAAGTGGCACCGAGTCGGTGCT 0.004333

What value of Mean relative activity has been recorded for this entry: cr637 (nucleic acid, listed as DNA, chemistry not fully specified) guide: GTTTAAGAGCTAAGCTGGAAACAGCATATCAAGATTAAATAAGGCTAGTCCGTTATCAACTTGAGAAAGTGGCACCGAGTCGGTGCT −0.001265
